Hello, the source for this data is patent US6737383B1, in case you need it.

- Test system: crabgrass
- methodNotes: Test B pre/postemergence crabgrass
- Format: in vivo, Digitaria sanguinalis
- setupConditions: Preemergence, Rate 62 g/ha; scale 0 to 10 (0 no effect, 10 complete control)
Kindly state Crabgrass plant response rating for each of the entries shown.
Numbers only.

Use the examples below as a reference point.
C=C(C)Cn1c(=O)on(C(=O)N(c2ccccc2)C(C)C)c1=O    7
CC(C)N(C(=O)n1oc(=O)n(CCCF)c1=O)c1ccccc1    9
C=C(Cn1c(=O)on(C(=O)N(c2ccccc2)C(C)C)c1=O)c1cccc(Cl)n1    0
CCCn1c(=O)on(C(=O)N(c2ccc(F)cc2)C(C)C)c1=O    10
C=CCn1c(=O)on(C(=O)N(c2ccc(Cl)cc2)C(C)C)c1=O    2
CC(C)N(C(=O)n1oc(=O)n(-c2ccnn2C)c1=O)c1ccc(F)cc1    0

For the 2 molecules below, give their Crabgrass plant response rating values.
1. CCC(C)n1c(=O)on(C(=O)N(c2ccccc2)C(C)C)c1=O (stereo not shown)
2. CCn1c(=O)on(C(=O)N(c2ccccc2)C(C)C)c1=O

1. 9
2. 9

====

- Test system: blackgrass
- methodNotes: Test B pre/postemergence blackgrass
- Format: in vivo, Alopecurus myosuroides
- setupConditions: Preemergence, Rate 500 g/ha; scale of 0 to 10 where 0 is no effect and 10 is complete control
- Experimental: […] At the same time, these crop and weed species were also treated with postemergence applications of test chemicals formulated in the same manner. […] Treated plants and controls were maintained in a greenhouse for twelve to sixteen days, after which all species were compared to controls and visually evaluated. […]
Strictly below 8 in Plant response rating, Blackgrass: True. Otherwise: False.

These solved cases illustrate the format of a correct answer.
CC(C)N(C(=O)n1oc(=O)n(C(C)C)c1=O)c1ccncc1 [Compound 663]    True
C#CC(C)n1c(=O)on(C(=O)N(c2ccc(Cl)cc2)C(C)C)c1=O (racemic) [Compound 658]    True
COCCn1c(=O)on(C(=O)N(c2ccc(F)cc2)C(C)C)c1=O [Compound 627]    False

hey, is Plant response rating, Blackgrass for C#CCn1c(=O)on(C(=O)N(c2ccc(F)cc2)C(C)C)c1=O [Compound 212] lower than 8 or not?
False

hey, is Plant response rating, Blackgrass for C#CC=CC(C)(C)n1c(=O)on(C(=O)N(c2ccccc2)C(C)C)c1=O [Compound 655] lower than 8 or not?
True

hey, is Plant response rating, Blackgrass for C=C(Cl)Cn1c(=O)on(C(=O)N(c2ccc(F)cc2F)C(C)C)c1=O [Compound 634] lower than 8 or not?
False

hey, is Plant response rating, Blackgrass for CC(C)N(C(=O)n1oc(=O)n(Cc2ccco2)c1=O)c1ccc(F)cc1F [Compound 208] lower than 8 or not?
True

hey, is Plant response rating, Blackgrass for CC(C)N(C(=O)n1oc(=O)n(CC(C)(C)C)c1=O)c1ccc(F)cc1F [Compound 277] lower than 8 or not?
False

hey, is Plant response rating, Blackgrass for CC(C)N(C(=O)n1oc(=O)n(C(C)C(=S)N(C)C)c1=O)c1ccccc1 (stereo not shown) [Compound 704] lower than 8 or not?
False

====

- System: soybean
- methodNotes: Test B pre/postemergence soybean
- Assay type: in vivo, Glycine max
- setupConditions: Rate 250 g/ha, Postemergence; scale 0 to 10, 0 is no effect, 10 is complete control
Kindly state Plant response rating, Soybean for each of the entries shown.
Give bare numbers.

Use the examples below as a reference point.
CC(C)N(C(=O)n1oc(=O)n(-c2ccnn2C)c1=O)c1ccc(F)cc1 [Compound 124]    4
Cc1nn(C)c(Cl)c1-n1c(=O)on(C(=O)N(c2ccccc2)C(C)C)c1=O [Compound 121]    6
CC(C)N(C(=O)n1oc(=O)n(C(C)C)c1=O)c1ccc(F)cc1 [Compound 131]    8
CCn1c(=O)on(C(=O)N(c2ccccc2)C(C)C)c1=O [Compound 117]    5
CCCn1c(=O)on(C(=O)N(c2ccc(F)cc2F)C(C)C)c1=O [Compound 130]    3

For the 3 compounds below, give their Plant response rating, Soybean values.
1. C=CCn1c(=O)on(C(=O)N(c2ccc(F)cc2F)C(C)C)c1=O [Compound 151]
2. CC(C)N(C(=O)n1oc(=O)n(C(C)C)c1=O)c1ccc(Cl)cc1 [Compound 114]
3. Cc1ccccc1-n1c(=O)on(C(=O)N(c2ccc(Br)cc2)C(C)C)c1=O [Compound 175]

4
5
1

====

Kindly state Velvetleaf plant response rating for each of the entries shown.
- Test system: velvetleaf
- methodNotes: Test B pre/postemergence velvetleaf
- Assay type: in vivo, Abutilon theophrasti
- setupConditions: Rate 125 g/ha, Postemergence; scale 0 to 10

For the 4 molecules below, give their Velvetleaf plant response rating values.
1. Cc1nc(C)c(Cn2c(=O)on(C(=O)N(c3ccc(F)cc3)C(C)C)c2=O)s1 [Compound 192]
2. CC(C)N(C(=O)n1oc(=O)n(Cc2ccco2)c1=O)c1ccc(F)cc1F [Compound 208]
3. Cc1nc(C)c(Cn2c(=O)on(C(=O)N(c3ccc(F)cc3)C(C)C)c2=O)s1 [Compound 232]
4. Cc1ccccc1-n1c(=O)on(C(=O)N(c2ccc(Cl)cc2Cl)C(C)C)c1=O [Compound 185]

1: 2; 2: 1; 3: 2; 4: 0

====

- System: morningglory
- methodNotes: Test B pre/postemergence morningglory
- Assay type: in vivo, Ipomoea hederacea
- setupConditions: Preemergence, Rate 250 g/ha; scale 0 (no effect) to 10 (complete control)
Kindly state Morningglory plant response rating for each of the entries shown.
Give bare numbers.

Use the examples below as a reference point.
COC(CCl)n1c(=O)on(C(=O)N(c2ccc(Cl)cc2)C(C)C)c1=O (stereo not shown)    1
CC(C)N(C(=O)n1oc(=O)n(CC2CCCCO2)c1=O)c1ccc(F)cc1F (stereo not shown)    2

For the 2 compounds below, give their Morningglory plant response rating values.
1. COCC(OC)n1c(=O)on(C(=O)N(c2ccccc2)C(C)C)c1=O (stereo not shown)
2. CC(=O)NCCn1c(=O)on(C(=O)N(c2ccc(F)cc2)C(C)C)c1=O

1: 3; 2: 0

====

Kindly state Plant response rating, Redroot pigweed for each of the entries shown.
- Test system: pigweed
- methodNotes: Test B pre/postemergence pigweed
- Assay type: in vivo, Amaranthus retroflexus
- setupConditions: Postemergence, Rate 500 g/ha; scale of 0 to 10 where 0 is no effect and 10 is complete control
One number for each entry.

Use the examples below as a reference point.
CC(C)N(C(=O)n1oc(=O)n(CCCF)c1=O)c1ccccc1    8
CC(C)N(C(=O)n1oc(=O)n(CCCC(F)(F)F)c1=O)c1ccccc1    7
C=C(Cn1c(=O)on(C(=O)N(c2ccccc2)C(C)C)c1=O)c1cccc(Cl)n1    0
CCC(C)n1c(=O)on(C(=O)N(c2ccccc2)C(C)C)c1=O (stereo not drawn)    8
CC(C)N(C(=O)n1oc(=O)n(C(CF)CF)c1=O)c1ccc(F)cc1F    7

Turning now to a further compound:
compound `C=C(C)Cn1c(=O)on(C(=O)N(c2ccccc2)C(C)C)c1=O` , Plant response rating, Redroot pigweed observed: 5

====

Kindly state Plant response rating, Corn for each of the entries shown.
- System: corn
- methodNotes: Test B pre/postemergence corn
- Format: in vivo, Zea mays
- setupConditions: Postemergence, Rate 125 g/ha; scale of 0 to 10 where 0 is no effect and 10 is complete control
Answers are plain numbers.

CC(C)N(C(=O)n1oc(=O)n(CCCC(F)(F)F)c1=O)c1ccccc1 [Compound 585]    0
CC(C)N(C(=O)n1oc(=O)n(C(CF)CF)c1=O)c1ccc(F)cc1F [Compound 595]    0
COCCn1c(=O)on(C(=O)N(c2ccc(F)cc2F)C(C)C)c1=O [Compound 628]    6
CCC(C)n1c(=O)on(C(=O)N(c2ccccc2)C(C)C)c1=O (centres unmarked) [Compound 610]    0

molecule CCOP(=O)(Cn1c(=O)on(C(=O)N(c2ccc(Cl)cc2)C(C)C)c1=O)OCC [Compound 599] , Plant response rating, Corn observed: 0

====

- System: morningglory
- methodNotes: Test B pre/postemergence morningglory
- Format: in vivo, Ipomoea hederacea
- setupConditions: Preemergence, Rate 62 g/ha; scale of 0 to 10 where 0 is no effect and 10 is complete control
Kindly state Morningglory plant response rating for each of the entries shown.
Numbers only.

Use the examples below as a reference point.
Cc1nc(C)c(Cn2c(=O)on(C(=O)N(c3ccc(F)cc3)C(C)C)c2=O)s1 [Compound 232]    0
C=C(Cl)Cn1c(=O)on(C(=O)N(c2ccc(F)cc2F)C(C)C)c1=O    0

For the 2 molecules below, give their Morningglory plant response rating values.
1. C=CCn1c(=O)on(C(=O)N(c2ccc(Cl)cc2)C(C)C2CC2)c1=O (stereo not shown)
2. C#CC(C)n1c(=O)on(C(=O)N(c2ccc(F)cc2F)C(C)C)c1=O (racemic)

[0, 1]
